meta.source: patent US11179390B2

Experiment: Plasma pharmacokinetics after single subcutaneous doses, clinical phase I study
Format: in vivo, human (healthy male subjects)
Settings: male, human, sc; 1 mg s.c. single dose, N = 6, plasma; read-out: t1/2, G.M. (converted)
Source text: The time- and dose-dependency of plasma concentration and inhibition of platelet aggregation (IPA) after subcutaneous administration of Compound 1 was investigated in a clinical phase I study in healthy male subjects. […] maximum plasma concentration (Cmax); time to reach Cmax (tmax); area under the plasma concentration-time curve (AUC) from zero to time t of the last measured concentration above the limit of quantification (AUC0−t); and terminal elimination half-life (t1/2). […]
readout: half-life (h)
Enter your answer as a number in h; do not include the unit.

Prompt: Param item = CCCCOC(=O)N1CCN(C(=O)[C@H](CP(=O)(O)O)NC(=O)c2cc(N3CC[C@H](OC)C3)nc(-c3ccccc3)n2)CC1 ; retrieve measured half-life.
Completion: 1.34

----------
assay: Plasma pharmacokinetics after single subcutaneous doses, clinical phase I study; format: in vivo, human (healthy male subjects); details: male, human, sc; 1 mg s.c. single dose, N = 6, plasma
readout: AUC(0-t) (ng·h/mL)
Enter your answer as a number in ng·h/mL; do not include the unit.

Prompt: Param item = CCCCOC(=O)N1CCN(C(=O)[C@H](CP(=O)(O)O)NC(=O)c2cc(N3CC[C@H](OC)C3)nc(-c3ccccc3)n2)CC1 ; retrieve measured AUC(0-t).
Completion: 56.1

----------
assay: Plasma pharmacokinetics after single subcutaneous doses, clinical phase I study; assay type: in vivo, human (healthy male subjects); settings: male, human, sc; 4 mg s.c. single dose, N = 6, plasma
readout: AUC(0-t) (ng·h/mL)
Enter your answer as a number in ng·h/mL; do not include the unit.

Prompt: Param item = CCCCOC(=O)N1CCN(C(=O)[C@H](CP(=O)(O)O)NC(=O)c2cc(N3CC[C@H](OC)C3)nc(-c3ccccc3)n2)CC1 [Compound 1] ; retrieve measured AUC(0-t).
Completion: 261

----------
assay: Plasma pharmacokinetics after single subcutaneous doses, clinical phase I study; format: in vivo, human (healthy male subjects); details: male, human, sc; 16 mg s.c. single dose, N = 6, plasma; read-out: t1/2, G.M. (converted)
readout: half-life

Prompt: Param item = CCCCOC(=O)N1CCN(C(=O)[C@H](CP(=O)(O)O)NC(=O)c2cc(N3CC[C@H](OC)C3)nc(-c3ccccc3)n2)CC1 [Compound 1] ; retrieve measured half-life.
Completion: 7.2 h

----------
experiment: Solubility in aqueous media; assay type: physicochemical; conditions: lyophilized disodium salt of Compound 1, reconstituted in water, pH=8.4
readout: solubility (mg/mL)
Enter your answer as a number in mg/mL; do not include the unit.

Prompt: Param item = CCCCOC(=O)N1CCN(C(=O)[C@H](CP(=O)(O)O)NC(=O)c2cc(N3CC[C@H](OC)C3)nc(-c3ccccc3)n2)CC1 [Compound 1] ; retrieve measured solubility.
Completion: 75

----------
Assay: Plasma pharmacokinetics after single subcutaneous doses, clinical phase I study
Format: in vivo, human (healthy male subjects)
Details: male, human, sc; 4 mg s.c. single dose, N = 6, plasma; read-out: t1/2, G.M. (converted)
Source text: The time- and dose-dependency of plasma concentration and inhibition of platelet aggregation (IPA) after subcutaneous administration of Compound 1 was investigated in a clinical phase I study in healthy male subjects. […] maximum plasma concentration (Cmax); time to reach Cmax (tmax); area under the plasma concentration-time curve (AUC) from zero to time t of the last measured concentration above the limit of quantification (AUC0−t); and terminal elimination half-life (t1/2). […]
readout: half-life (min)
Enter your answer as a number in min; do not include the unit.

Prompt: Param item = CCCCOC(=O)N1CCN(C(=O)[C@H](CP(=O)(O)O)NC(=O)c2cc(N3CC[C@H](OC)C3)nc(-c3ccccc3)n2)CC1 ; retrieve measured half-life.
Completion: 160

----------
Test: Plasma pharmacokinetics after single subcutaneous doses, clinical phase I study
Format: in vivo, human (healthy male subjects)
Conditions: male, human, sc; 16 mg s.c. single dose, N = 6, plasma
From the text: The time- and dose-dependency of plasma concentration and inhibition of platelet aggregation (IPA) after subcutaneous administration of Compound 1 was investigated in a clinical phase I study in healthy male subjects. […] maximum plasma concentration (Cmax); time to reach Cmax (tmax); area under the plasma concentration-time curve (AUC) from zero to time t of the last measured concentration above the limit of quantification (AUC0−t); and terminal elimination half-life (t1/2). […]
readout: AUC(0-t) (ng·h/mL)
Enter your answer as a number in ng·h/mL; do not include the unit.

Prompt: Param item = CCCCOC(=O)N1CCN(C(=O)[C@H](CP(=O)(O)O)NC(=O)c2cc(N3CC[C@H](OC)C3)nc(-c3ccccc3)n2)CC1 ; retrieve measured AUC(0-t).
Completion: 1120

----------
test: Plasma pharmacokinetics after single subcutaneous doses, clinical phase I study; type: in vivo, human (healthy male subjects); conditions: male, human, sc; 4 mg s.c. single dose, N = 6, plasma
readout: Cmax (ng/mL)
Enter your answer as a number in ng/mL; do not include the unit.

Prompt: Param item = CCCCOC(=O)N1CCN(C(=O)[C@H](CP(=O)(O)O)NC(=O)c2cc(N3CC[C@H](OC)C3)nc(-c3ccccc3)n2)CC1 ; retrieve measured Cmax.
Completion: 128

----------
test: Plasma pharmacokinetics after single subcutaneous doses, clinical phase I study; assay type: in vivo, human (healthy male subjects); details: male, human, sc; 8 mg s.c. single dose, N = 6, plasma
readout: Cmax (ng/mL)
Enter your answer as a number in ng/mL; do not include the unit.

Prompt: Param item = CCCCOC(=O)N1CCN(C(=O)[C@H](CP(=O)(O)O)NC(=O)c2cc(N3CC[C@H](OC)C3)nc(-c3ccccc3)n2)CC1 ; retrieve measured Cmax.
Completion: 273

----------
assay: Plasma pharmacokinetics after single subcutaneous doses, clinical phase I study; type: in vivo, human (healthy male subjects); settings: male, human, sc; 32 mg s.c. single dose, N = 6, plasma; read-out: tmax, Median
readout: Tmax (min)
Enter your answer as a number in min; do not include the unit.

Prompt: Param item = CCCCOC(=O)N1CCN(C(=O)[C@H](CP(=O)(O)O)NC(=O)c2cc(N3CC[C@H](OC)C3)nc(-c3ccccc3)n2)CC1 [Compound 1] ; retrieve measured Tmax.
Completion: 45

----------
assay: Plasma pharmacokinetics after single subcutaneous doses, clinical phase I study; assay type: in vivo, human (healthy male subjects); settings: male, human, sc; 2 mg s.c. single dose, N = 6, plasma
readout: AUC(0-t)
Give the value; after it, write the unit.

Prompt: Param item = CCCCOC(=O)N1CCN(C(=O)[C@H](CP(=O)(O)O)NC(=O)c2cc(N3CC[C@H](OC)C3)nc(-c3ccccc3)n2)CC1 ; retrieve measured AUC(0-t).
Completion: 116 ng·h/mL

----------
assay: Plasma pharmacokinetics after single subcutaneous doses, clinical phase I study; format: in vivo, human (healthy male subjects); details: male, human, sc; 2 mg s.c. single dose, N = 6, plasma; read-out: t1/2, G.M. (converted)
readout: half-life (h)
Enter your answer as a number in h; do not include the unit.

Prompt: Param item = CCCCOC(=O)N1CCN(C(=O)[C@H](CP(=O)(O)O)NC(=O)c2cc(N3CC[C@H](OC)C3)nc(-c3ccccc3)n2)CC1 ; retrieve measured half-life.
Completion: 1.92

----------
Test: Plasma pharmacokinetics after single subcutaneous doses, clinical phase I study
Format: in vivo, human (healthy male subjects)
Conditions: male, human, sc; 2 mg s.c. single dose, N = 6, plasma
Excerpt: The time- and dose-dependency of plasma concentration and inhibition of platelet aggregation (IPA) after subcutaneous administration of Compound 1 was investigated in a clinical phase I study in healthy male subjects. […] maximum plasma concentration (Cmax); time to reach Cmax (tmax); area under the plasma concentration-time curve (AUC) from zero to time t of the last measured concentration above the limit of quantification (AUC0−t); and terminal elimination half-life (t1/2). […]
readout: Cmax

Prompt: Param item = CCCCOC(=O)N1CCN(C(=O)[C@H](CP(=O)(O)O)NC(=O)c2cc(N3CC[C@H](OC)C3)nc(-c3ccccc3)n2)CC1 [Compound 1] ; retrieve measured Cmax.
Completion: 58.4 ng/mL

----------
assay: Plasma pharmacokinetics after single subcutaneous doses, clinical phase I study; type: in vivo, human (healthy male subjects); details: male, human, sc; 32 mg s.c. single dose, N = 6, plasma
readout: AUC(0-t)

Prompt: Param item = CCCCOC(=O)N1CCN(C(=O)[C@H](CP(=O)(O)O)NC(=O)c2cc(N3CC[C@H](OC)C3)nc(-c3ccccc3)n2)CC1 ; retrieve measured AUC(0-t).
Completion: 2340 ng·h/mL

----------
test: Plasma pharmacokinetics after single subcutaneous doses, clinical phase I study; format: in vivo, human (healthy male subjects); conditions: male, human, sc; 4 mg s.c. single dose, N = 6, plasma; read-out: tmax, Median
readout: Tmax (min)
Enter your answer as a number in min; do not include the unit.

Prompt: Param item = CCCCOC(=O)N1CCN(C(=O)[C@H](CP(=O)(O)O)NC(=O)c2cc(N3CC[C@H](OC)C3)nc(-c3ccccc3)n2)CC1 [Compound 1] ; retrieve measured Tmax.
Completion: 30
